Target: Shiga toxin 2 (Escherichia coli O157:H7) (UniProt P09385+P09386)
Assay: E. coli 0.157:H7 Shiga Toxin SOP - stx2 screening assay
Assay type: functional
Parameters: scale not given: direction of the effect not stated beside the values
Details: 30 µM
measuredAttribute: Percent Effect (%)

>>> readoutvalue("COc1cccc(-n2nnc(C(=O)N3CCCC3)c2C)c1")
5.03
>>> readoutvalue("CN(C)S(=O)(=O)c1ccc(CN2CCCC2c2ccc[nH]2)o1 (stereo unspecified)")
8.06
>>> readoutvalue("CN(C)Cc1nnc(C2CCN(c3nccc(N)n3)CC2)n1C1CC1")
-41.2
>>> readoutvalue("O=C(CS(=O)(=O)c1ccccc1Cl)NC1CCCCNC1=O (stereo unspecified)")
4.72
>>> readoutvalue("COc1c(CNCCNC(=O)Cc2ccc(F)cc2)c(C)nn1C")
30.8
>>> readoutvalue("N#Cc1cc(NS(=O)(=O)c2ccc(C(=O)O)cc2F)ccc1F")
9.05
>>> readoutvalue("CCOC(=O)c1sc(NC(=O)CN(C)S(C)(=O)=O)c(C#N)c1C")
2.91
>>> readoutvalue("CCOc1ccc(NC(=O)c2cnc(N3CCCC3)nc2C)cc1")
-10.5
>>> readoutvalue("COc1cccc2c1OCC(C(=O)N1CCN(S(C)(=O)=O)CC1)C2 (stereo unspecified)")
14.3
>>> readoutvalue("COCCNC(=O)[C@H]1CN(c2nnc(C)s2)C[C@H]2OCC[C@@H]12")
-23.9
>>> readoutvalue("CN(C)CCOCC1CN(C(=O)[C@H]2CCCO2)Cc2ccnn2C1 (stereo partly specified)")
-15.2
>>> readoutvalue("NC(=O)C1CN(C(=O)Nc2cc(Cl)cc(Cl)c2)CCO1 (stereo unspecified)")
8.74
>>> readoutvalue("COc1ccc(CN2CCn3cc(CN4CCN(C)CC4)nc3C2)cc1")
10.3
>>> readoutvalue("Cc1ccc(C(=O)N2CCC3(CC2)COC(COc2ccccn2)C3)o1 (stereo unspecified)")
5.7
>>> readoutvalue("O=C(Cn1ccc2ccccc21)NCc1ccc(C(=O)O)cc1")
6.55
>>> readoutvalue("Cc1nnc(CN2CCN(CCOc3ccccc3C#N)CC2)n1C")
3.89
>>> readoutvalue("CC1=Nc2c(c(=O)[nH]n2C2CCCC2)C(c2cccc(O)c2)S1 (stereo unspecified)")
10.3
>>> readoutvalue("CC(C)CN1CCN(C(=O)NCc2cccnc2-n2cccn2)CC1")
-22.5
>>> readoutvalue("O=C(C1SCCc2sccc21)N1CCN(CCO)CC1 (stereo unspecified)")
24.8
>>> readoutvalue("Cc1nnc2n1CCN(C(C(=O)NC1CC1)c1ccccc1)C2 (stereo unspecified)")
15.2
>>> readoutvalue("CC(C)n1cc(CN2CCCN(C(=O)c3nccnc3N)CC2)cn1")
-11.2
>>> readoutvalue("O=C(COCc1nc(-c2ccncc2)no1)NC1CCCCC1")
-15.1
>>> readoutvalue("COCCN1C(=O)C[C@H]2[C@H]1CCN2Cc1ccc(OC)cc1")
-4.38
>>> readoutvalue("O=C(c1cscn1)N1CCC2(CCN(Cc3cccs3)CC2)C1")
-7.4
>>> readoutvalue("Fc1ccccc1CN1C[C@@H](OCc2ccncc2)[C@H]2OCCC[C@H]21")
-45.1
>>> readoutvalue("COc1cccc2cc(CNC(=O)N3CCCC(O)C3)oc12 (stereo unspecified)")
-15.3
>>> readoutvalue("O=C(N[C@H]1CN[C@H]2CCCO[C@H]21)c1cccnc1")
-2.82
>>> readoutvalue("CCOCCC(=O)N1CCCC(c2ncc[nH]2)C1 (stereo unspecified)")
-22.5
>>> readoutvalue("Cc1ccc(N2CC3(COCCN(Cc4cccnc4)C3)OCC2=O)s1 (stereo unspecified)")
-4.57
>>> readoutvalue("Cc1cccc(C(=O)NCCCN2CCN(c3ccccc3)CC2)c1")
-54
>>> readoutvalue("Cc1noc2nc(C3CCN(Cc4ccncc4)CC3)cc(C(F)F)c12")
-67.8
>>> readoutvalue("Nc1cc2c(nn1)CCN(C(=O)c1cccc3c1OCCO3)C2")
-28.6
>>> readoutvalue("Cc1ccc(CNC2CCCc3c2cnn3C)s1 (stereo unspecified)")
1.56
>>> readoutvalue("O=C(NC1CC1)[C@H]1C[C@H]2OCC[C@H]2N(CC2CCOCC2)C1")
-17.4
>>> readoutvalue("O=C(c1ccsc1)N1CC(C(=O)N2CCOCC2)C2(CCOCC2)C1 (stereo unspecified)")
-2.66
>>> readoutvalue("COc1cccc(C2CC(=O)Nc3nc(N4CCOCC4)sc32)c1OC (stereo unspecified)")
-3.76
>>> readoutvalue("CCn1cnnc1CNC(=O)N1CCOCC1")
7.05
>>> readoutvalue("Cc1nc(C)n(C2CCCN(C(=O)CCCn3ccnc3)C2)n1 (stereo unspecified)")
-12.7
>>> readoutvalue("CC(=O)Nc1nc(C(=O)N2CCCC(n3ccnc3)C2)cs1 (stereo unspecified)")
0.121
>>> readoutvalue("O=C(c1n[nH]c2c1CCN(Cc1nccs1)C2)N1CCCC1")
-3.88
>>> readoutvalue("c1coc(CN2Cc3nccn3CC(Cn3cncn3)C2)c1 (stereo unspecified)")
-9.64
